Provide the reported PBM E-score of each item.
Target: Cad1 (UniProt P24813)
Sequence: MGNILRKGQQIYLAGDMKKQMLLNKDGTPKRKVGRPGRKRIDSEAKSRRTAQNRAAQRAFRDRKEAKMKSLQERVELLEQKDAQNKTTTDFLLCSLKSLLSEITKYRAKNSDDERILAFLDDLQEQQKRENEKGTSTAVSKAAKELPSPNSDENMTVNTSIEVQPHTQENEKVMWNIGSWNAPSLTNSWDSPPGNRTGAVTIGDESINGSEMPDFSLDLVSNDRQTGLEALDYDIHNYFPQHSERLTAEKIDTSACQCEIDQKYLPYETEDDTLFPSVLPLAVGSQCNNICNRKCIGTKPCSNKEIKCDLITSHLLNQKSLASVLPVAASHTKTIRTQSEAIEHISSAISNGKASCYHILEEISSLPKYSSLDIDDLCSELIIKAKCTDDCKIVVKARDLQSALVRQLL
Assay: PBM E-score (8-mer binding enrichment) (E-score (-0.5 to 0.5)); higher = stronger / more preferred TF binding
Conditions: protein concentration: 100 nM; construct: GST-full length
Over roughly 33,000 sequences, “E-score (-0.5 to 0.5)” has its median near -0.0014; the highest 2% begin near 0.25. What follows is part of a selection rich in the highest values, with near analogues and random picks from the rest.
Answer with a number only.

Exam item: I'd like to know its PBM E-score. The sequence in question is CAATTTTA
Marked response: 0.27

Exam item: I'd like to know its PBM E-score. The sequence in question is GTGCGGAA
Marked response: 0.0803

Exam item: I'd like to know its PBM E-score. The sequence in question is AGTACGCA
Marked response: -0.129

Exam item: I'd like to know its PBM E-score. The sequence in question is ATCGTGCG
Marked response: 0.325

Exam item: I'd like to know its PBM E-score. The sequence in question is CAATTTTC
Marked response: 0.125

Exam item: I'd like to know its PBM E-score. The sequence in question is AGTACGAA
Marked response: 0.22

Exam item: I'd like to know its PBM E-score. The sequence in question is GACATTCC
Marked response: -0.0262

Exam item: I'd like to know its PBM E-score. The sequence in question is AAGTAACG
Marked response: -0.0002

Exam item: I'd like to know its PBM E-score. The sequence in question is ATCAGAGA
Marked response: -0.0164

Exam item: I'd like to know its PBM E-score. The sequence in question is CGAGCTTA
Marked response: 0.214

Exam item: I'd like to know its PBM E-score. The sequence in question is AGAGCTTC
Marked response: -0.181

Exam item: I'd like to know its PBM E-score. The sequence in question is CTGGCCAC
Marked response: 0.00652

Exam item: I'd like to know its PBM E-score. The sequence in question is ACTCCGTA
Marked response: -0.228

Exam item: I'd like to know its PBM E-score. The sequence in question is GAACGTTC
Marked response: -0.0713

Exam item: I'd like to know its PBM E-score. The sequence in question is CCAATCGA
Marked response: 0.105

Exam item: I'd like to know its PBM E-score. The sequence in question is CCGCGAAG
Marked response: 0.12

Exam item: I'd like to know its PBM E-score. The sequence in question is GGGGTTCA
Marked response: -0.191

Exam item: I'd like to know its PBM E-score. The sequence in question is ATCGTGCA
Marked response: 0.166

Exam item: I'd like to know its PBM E-score. The sequence in question is AACGTAGA
Marked response: 0.0503

Exam item: I'd like to know its PBM E-score. The sequence in question is ATCGCGCG
Marked response: 0.282

Exam item: I'd like to know its PBM E-score. The sequence in question is AGAGCCCT
Marked response: -0.122

Exam item: I'd like to know its PBM E-score. The sequence in question is AATCTCCC
Marked response: -0.277
